meta.source: patent US20230398130A1

# Tested on: ISC-enriched organoids
# Assay name: Primary screen, 384-well 2.5-D organoid differentiation (ENR+CD, 6 days, Target Selective Inhibitor Library, vs whole-plate median): ATP (CellTiter-Glo 3D, CTG)
# Run parameters: Dose 0.40 uM; primary screen, FC vs plate median
Endpoint: Dose.FC.CTG (log 2 fold change)

>>> df
                                   molecule  observed_value
0  Cc1cnc(-c2cc(N3CCN(C(=O)CCS(C)(=O)=O)CC3)ncc2Cl)c(C)c1 [PF-5274857]          −0.040
1  Cc1ccc(C(=O)N(CCCN)[C@@H](c2nc3cc(Cl)ccc3c(=O)n2Cc2ccccc2)C(C)C)cc1 [Ispinesib (SB-715992)]          −0.518
2  O=C(c1cn(Cc2cncn2Cc2ccc(Br)cc2)cc1-c1cccc2ccccc12)N1CCOCC1 [LB42708]          −0.342
3  COc1ccc2c(c1)c(C1=C(c3c[nH]c4ccccc34)C(=O)NC1=O)cn2CCCN(C)C [Go 6983]          −0.036

====

Z.CTG reference
# Tested on: ISC-enriched organoids
# Assay name: Primary screen, 384-well 2.5-D organoid differentiation (ENR+CD, 6 days, Target Selective Inhibitor Library, vs whole-plate median): ATP (CellTiter-Glo 3D, CTG)
# Run parameters: Dose 10.00 uM; primary screen, standard z score
Structures can show the parent of a compound that is named as a salt.
Endpoint: Z.CTG

>>> print(df.to_string())
                                   compound           tested_target  endpoint  observed_value
0  Cc1noc(-c2ccc(CSCCC(=O)O)cc2)c1NC(=O)OC(C)c1ccccc1Cl (centres unmarked) [Ki16425]  ISC-enriched organoids     Z.CTG          −0.394
1  Cc1ccc(C(=O)N(CCCN)[C@@H](c2nc3cc(Cl)ccc3c(=O)n2Cc2ccccc2)C(C)C)cc1 [Ispinesib (SB-715992)]  ISC-enriched organoids     Z.CTG          −1.704
2  COc1ccc(COc2ccc(Cc3cnc(N)nc3N)cc2OC)cc1 [GW2580]  ISC-enriched organoids     Z.CTG          −0.091
3  N#Cc1ccc(C(c2ccc(C#N)cc2)n2cncn2)cc1 [Letrozole]  ISC-enriched organoids     Z.CTG           0.408
4  CC12CC3CC(C)(C1)CC(N)(C3)C2 [Memantine HCl]  ISC-enriched organoids     Z.CTG           0.184

====

# Tested on: ISC-enriched organoids
# Assay name: Primary screen, 384-well 2.5-D organoid differentiation (ENR+CD, 6 days): basal lysozyme secretion (LYZ.NS)
# Type: cell-based, murine
# Run parameters: primary screen, dose 0.40 uM, ENR+CD 6 days, FC vs plate median
Below, each of the compounds is paired with its reported Dose.FC.LYZ.NS value.
Endpoint: Dose.FC.LYZ.NS (log 2 fold change)

>>> print(df.to_string())
                                   compound  observed_value
0  O=C(c1ccc(F)cc1)N1CCC[C@H](c2nc(-c3ccc(F)cc3)no2)C1           0.053
1  O=C(/C=C/c1cccc(S(=O)(=O)Nc2ccccc2)c1)NO           0.129
2  C[C@H]1COC2(CCN(c3nc(=O)c4cc(C(F)(F)F)cc([N+](=O)[O-])c4s3)CC2)O1 (racemic) [BTZ043 Racemate]           0.186
3  C=C1C(=O)O[C@H]2[C@H]1CC/C(C)=C/CC[C@@]1(C)O[C@@H]21 [(−)-Parthenolide]           0.067
4  C/C(=C\C(=O)Nc1ccccc1C(=O)O)c1ccc2ccccc2c1           0.043
5  C=CCNC1=C2C[C@@H](C)C[C@H](OC)[C@H](O)[C@@H](C)/C=C(\C)[C@H](OC(N)=O)[C@@H](OC)/C=C\C=C(/C)C(=O)NC(=CC1=O)C2=O          −0.205
6  CC(C)CCN1c2nc(Nc3cc(F)c(O)c(F)c3)ncc2N(C)C(=O)C1C (stereo not shown)           0.126
